# credit: patent US20130310396A1

Assay overview: in vitro
Type: in vitro ADME
Test settings: human liver microsomes, 0.5 mg/mL microsomal protein, 1 mM NADPH, 37° C., 20 min, N=1
Observation type: Percentage Remaining 20 min (%)

[2H][C@@]1(N2CCN(c3cc(C)nn3-c3ccccc3)CC2)CN[C@H](C(=O)N2CCSC2)C1: 87
[2H]c1ccc(-n2nc(C)cc2N2CCN([C@@H]3CN[C@H](C(=O)N4CCSC4)C3)CC2)cc1: 87
Cc1cc(N2CCN([C@@H]3CN[C@H](C(=O)N4CCSC4)C3)CC2)n(-c2ccccc2)n1 [Teneligliptin, reference compound]: 85
[2H]C1([2H])CSC([2H])([2H])N1C(=O)C1CC(N2CCN(c3cc(C)nn3-c3ccccc3)CC2)CN1 (stereo not shown): 85

* * *

Assay overview: in vitro
Type: in vitro ADME
Test settings: human liver microsomes, 0.5 mg/mL microsomal protein, 1 mM NADPH, 37° C., 10 min, N=1
Method: The liver microsomes stability of compounds of Examples 1, 4 and 5 were compared with Teneligliptin. The metabolic stability of compounds of the invention was tested using pooled liver microsomes prepared from mixed-gender humans, with 1 mM NADPH. The samples were analyzed using an LTQ-Orbitrap XL mass spectrometer. […]
Observation type: Percentage Remaining 10 min (%)

[2H][C@@]1(N2CCN(c3cc(C)nn3-c3ccccc3)CC2)CN[C@H](C(=O)N2CCSC2)C1: 90
Cc1cc(N2CCN([C@@H]3CN[C@H](C(=O)N4CCSC4)C3)CC2)n(-c2ccccc2)n1 [Teneligliptin, reference compound]: 90
[2H]c1ccc(-n2nc(C)cc2N2CCN([C@@H]3CN[C@H](C(=O)N4CCSC4)C3)CC2)cc1: 95
[2H]C1([2H])CSC([2H])([2H])N1C(=O)C1CC(N2CCN(c3cc(C)nn3-c3ccccc3)CC2)CN1 (stereo not shown): 92

* * *

Assay overview: in vitro
Type: in vitro ADME
Test settings: human liver microsomes, 0.5 mg/mL microsomal protein, 1 mM NADPH, 37° C., 30 min, N=1
Observation type: Percentage Remaining 30 min (%)

Cc1cc(N2CCN([C@@H]3CN[C@H](C(=O)N4CCSC4)C3)CC2)n(-c2ccccc2)n1 [Teneligliptin, reference compound]: 65
[2H][C@@]1(N2CCN(c3cc(C)nn3-c3ccccc3)CC2)CN[C@H](C(=O)N2CCSC2)C1 [Example 5]: 70
[2H]C1([2H])CSC([2H])([2H])N1C(=O)C1CC(N2CCN(c3cc(C)nn3-c3ccccc3)CC2)CN1 (stereo not shown) [Example 1]: 70
[2H]c1ccc(-n2nc(C)cc2N2CCN([C@@H]3CN[C@H](C(=O)N4CCSC4)C3)CC2)cc1 [Example 4]: 75

* * *

Assay overview: in vitro
Type: in vitro ADME
Test settings: human liver microsomes, 0.5 mg/mL microsomal protein, 1 mM NADPH, 37° C., 0 min, N=1
Observation type: Percentage Remaining 0 min (%)

Cc1cc(N2CCN([C@@H]3CN[C@H](C(=O)N4CCSC4)C3)CC2)n(-c2ccccc2)n1 [Teneligliptin, reference compound]: 100
[2H]c1ccc(-n2nc(C)cc2N2CCN([C@@H]3CN[C@H](C(=O)N4CCSC4)C3)CC2)cc1 [Example 4]: 100
[2H][C@@]1(N2CCN(c3cc(C)nn3-c3ccccc3)CC2)CN[C@H](C(=O)N2CCSC2)C1 [Example 5]: 100
[2H]C1([2H])CSC([2H])([2H])N1C(=O)C1CC(N2CCN(c3cc(C)nn3-c3ccccc3)CC2)CN1 (stereo not shown) [Example 1]: 100
